Test system: A498 renal
Test: NCI-60 one-dose screen, 48 h
Conditions: 10 µM unless noted
About 83,000 compounds went through this panel and 20% of them were active in at least one assay; those are over-represented in the sample as a whole. Calls of active or inactive are those of the source. Rule for the calls: active = growth percent below 10; inactive = the rest.
In this exercise, the only acceptable responses are Y (active), N (inactive)

Consider the following illustrative entries.
O=C(Nc1nc2cc(C(=O)N3CCN(C(c4ccccc4)c4ccccc4)CC3)ccc2o1)c1ccc(NC2CCCCC2)c([N+](=O)[O-])c1 :: N
O=S(=O)(NCCCNc1nccc(-c2c(-c3ccc(F)c(O)c3)nc3occn23)n1)c1ccc(Cl)cc1 :: N
CC(O)(c1ccccc1)C(c1ccccc1)C1CCCCN1 (stereo not drawn) :: N
NC(=O)c1cc(I)ccc1NC(=O)/C=C/c1ccccc1 :: Y
O=C(/C=C/c1cn(-c2ccccc2)nc1-c1ccc(Cl)cc1)c1ccc(F)cc1 :: N
Cc1ccc(CNc2ccc3nc(CCC4CCCCC4)[nH]c3c2)cc1 :: N
COC(=O)c1c(C)nc(C)c2c1C(=O)C(Br)=C(NCc1ccccc1)C2=O :: N
CCCCCCCCCc1ccc(OCCOCCOCCOCCOCCOCCOCCOCCOCCO)cc1 :: Y
C=C(C)[C@@H]1CC[C@]2(CO)CC[C@]3(C)[C@H](CC[C@@H]4[C@@]5(C)CC[C@H](NCO)C(C)(C)[C@@H]5CC[C@]43C)[C@@H]12 :: N
CCN(CC)c1ccc(\C=N/N=C(N)/C(N)=N\N=C/c2ccc(N(CC)CC)cc2)cc1 :: N

Given "Cc1cc(N2CCN(CCNc3ccnc4cc(Cl)ccc34)CC2)nc(N2CCOCC2)n1" , state the outcome it received in this test.
N

----------
Test system: SN12C renal
Test: NCI-60 one-dose screen, 48 h (100 = growth as untreated, 0 = no growth, -100 = all killed)
Details: 10 µM unless noted
About 83,000 compounds went through this panel and 20% of them were active in at least one assay; those are over-represented in the sample as a whole.
OUTCOME MEASURE: growth (%)
Give the value in % but do not write % after it.

These recorded examples may help you get a feel for the data.
Cc1sc2nc(NCCc3c[nH]c4ccc(Cl)cc34)[nH]c(=O)c2c1C :: 51.7
COCCNC(=O)Nc1ccc2nc(-c3cccs3)c(-c3cccs3)nc2c1 :: 94.7
C=CCOC(=O)Nc1cccn([C@H](Cc2ccccc2)C(=O)NCCC(C)C)c1=O :: 98.7
Cn1cc(-c2csc(-c3cn(C(=O)OC(C)(C)C)c4ccc(Br)cc34)n2)c2ccnc(Cl)c21 :: 93.6

Consider now this further compound.
Provide measured growth value, entry: "COc1ccc(C2=C(Nc3ccc(C(=O)Nc4ccccc4)cc3)C(=O)N(C)C2=O)cc1"
99.2

----------
Test system: M14 melanoma
Assay: NCI-60 one-dose screen, 48 h (100 = growth as untreated, 0 = no growth, -100 = all killed)
Settings: 10 µM unless noted
Compounds without any hit were thinned out: in the full panel of roughly 83,000, 20% have a hit. Calls of active or inactive are those of the source. How the source made its calls: active means growth percent below 10; inactive means the rest.
OUTCOME MEASURE: growth

These recorded examples may help you get a feel for the data.
COC(=O)Nc1nc2ccc(S(=O)c3ccccc3)cc2[nH]1 (centres undefined) :: 44.5% (inactive)
COc1ccccc1N1CCCCC1 :: 101% (inactive)
COc1ccc(/C=N/C2=C(C#N)C(c3ccccc3)c3ccc4ccccc4c3O2)cc1 (centres undefined) :: 2.72% (active)

Consider now this further compound.
Provide measured growth value, entry: "Nc1nc(-c2ccc(Cl)cc2)nc2c1sc(=S)n2-c1ccccc1"
68.1% (inactive)
